These measurements were taken from ChEMBL document CHEMBL4138258.

Biological target: Cannabinoid receptor 2 (Rattus norvegicus)
Sequence (Q9QZN9 whole entry): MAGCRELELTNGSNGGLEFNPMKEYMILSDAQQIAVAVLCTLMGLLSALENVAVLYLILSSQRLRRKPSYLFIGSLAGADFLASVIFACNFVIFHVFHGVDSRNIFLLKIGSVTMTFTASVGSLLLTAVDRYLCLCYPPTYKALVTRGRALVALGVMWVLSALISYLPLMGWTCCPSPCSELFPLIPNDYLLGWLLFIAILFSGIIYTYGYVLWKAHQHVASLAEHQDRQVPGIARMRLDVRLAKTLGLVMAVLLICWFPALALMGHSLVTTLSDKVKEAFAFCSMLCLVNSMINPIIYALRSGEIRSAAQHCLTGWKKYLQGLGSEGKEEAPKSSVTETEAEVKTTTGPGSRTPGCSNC
Experiment: Agonist activity at recombinant rat CB2 receptor expressed in HEK293 cells assessed as increase in beta arrestin recruitment measured after 2 to 3 hrs by PathHunter assay
Format: functional, cell-based
pEC50: −log10 of the molar value.
QUANTITY_KIND: pEC50

CHEMICAL_STRING: O=C(N[C@H](CO)C(F)(F)F)c1nn(-c2c[n+]([O-])ccn2)c2c1C[C@@H]1C[C@H]21
TARGET_SYSTEM: Cannabinoid receptor 2 (Rattus norvegicus)
VALUE_REPORTED: 6.28
//
CHEMICAL_STRING: CC1(NC(=O)c2nn(-c3c[n+]([O-])ccn3)c3c2C[C@@H]2C[C@H]32)CC1
TARGET_SYSTEM: Cannabinoid receptor 2 (Rattus norvegicus)
VALUE_REPORTED: 6.54
//
CHEMICAL_STRING: CC(C)(C)[C@@H](CF)NC(=O)c1nn(-c2c[n+]([O-])ccn2)c2c1C[C@@H]1C[C@H]21
TARGET_SYSTEM: Cannabinoid receptor 2 (Rattus norvegicus)
VALUE_REPORTED: 8.82
